- target_under_test: FKBP12 (Homo sapiens, UniProt P62942)
- Sequence (P62942 whole entry): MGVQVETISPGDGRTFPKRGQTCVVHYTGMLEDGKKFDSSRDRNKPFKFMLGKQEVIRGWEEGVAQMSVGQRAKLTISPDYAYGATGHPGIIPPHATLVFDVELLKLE
- experiment_notes: NanoBRET FKBP12 in intact HEK293 cells
experimental_endpoint: log10 of IC50 (log10 of the value in nM)
Kindly note that the scale is log10 and the underlying IC50 is in nM.

# input Write log10 of IC50 of C=CC1CN(Cc2ccccn2)C(=O)C2CCCC1N2S(=O)(=O)c1ccc(-c2cn(CCOCCNC(=O)CC3N=C(c4ccc(Cl)cc4)c4c(sc(C)c4C)-n4c(C)nnc43)nn2)c(Cl)c1 (centres unmarked) [a1h] ; system used: FKBP12 (Homo sapiens, UniProt P62942)
# output 2.72

# input # return log10 of IC50 of Cc1sc2c(c1C)C(c1ccc(Cl)cc1)=NC(CC(=O)NCCOCCn1cc(C3CN(Cc4ccccn4)C(=O)C4CCCC3N4S(=O)(=O)c3cc(Cl)cc(Cl)c3)nn1)c1nnc(C)n1-2 (centres unmarked) [a1c] (system: FKBP12 (Homo sapiens, UniProt P62942))
# output 1.34

# input Retrieve log10 of IC50 on FKBP12 (Homo sapiens, UniProt P62942); query Cc1sc2c(c1C)C(c1ccc(Cl)cc1)=NC(CC(=O)N1CCC(N3CCC(n4cc(COCC5CN(Cc6ccccn6)C(=O)C6CCCC5N6S(=O)(=O)c5cc(Cl)cc(Cl)c5)nn4)CC3)CC1)c1nnc(C)n1-2 (centres unmarked) [a9d]
# output 2.23

# input Tell me log10 of IC50 of Cc1sc2c(c1C)C(c1ccc(Cl)cc1)=NC(CC(=O)N1CCC(CN3CCC(n4cc(C5CN(Cc6ccccn6)C(=O)C6CCCC5N6S(=O)(=O)c5cc(Cl)cc(Cl)c5)nn4)CC3)CC1)c1nnc(C)n1-2 (centres unmarked) [a7c] when tested on FKBP12 (Homo sapiens, UniProt P62942).
# output 2.14

# input Would you please give the reported log10 of IC50 of Cc1sc2c(c1C)C(c1ccc(Cl)cc1)=NC(CC(=O)N1CC(CN3CCC(n4cc(C5CN(Cc6ccccn6)C(=O)C6CCCC5N6S(=O)(=O)c5cc(Cl)cc(Cl)c5)nn4)CC3)C1)c1nnc(C)n1-2 (centres unmarked) [a11c] with FKBP12 (Homo sapiens, UniProt P62942)?
# output 2.34
